protocol-description: A qHTS for Small Molecule Inhibitors of Shiga Toxin
experimental-conditions: Vero cells, Shiga toxin protein synthesis inhibition reporter; at 38.7 µM
In all, about 290,000 compounds went through this assay and about 27,000 (9.3%) were called active. Rule as the data show it: active = inhibition mostly above about 28% (no sharp cut-off); inactive = mostly below about 43%. For the sample, actives were picked, then their nearest neighbours and some compounds at random.
// classify into yes for active, no for inactive

# compound, discrete-label
rows = [
    ("Cc1cccc(OCc2ccc(C(=O)Nc3ccc(F)cc3)cc2)c1", "no"),
    ("Cc1cccc(CS(=O)(=O)c2ncc(Cl)c(C(=O)Nc3ccc(F)cc3)n2)c1", "yes"),
    ("CC(=O)Nc1ccc(S(=O)(=O)N2CCC(NC(=O)c3ccccc3)CC2)cc1", "no"),
]

What call does the record list for CCOc1ccc(NC(=O)c2nc(SCC)ncc2Cl)cc1 ?
no

What call does the record list for Cc1nn(C)cc1/C=N/NC(=O)c1sc2ccccc2c1Cl ?
no

What call does the record list for Cc1cccc(NC(=O)c2nc[nH]c2C(=O)NCC(=O)OCc2ccccc2)c1 ?
no

What call does the record list for O=S(=O)(/C=C/c1ccccc1)N1CCNCC1 ?
no

What call does the record list for Cc1ccc(-n2[nH]c(C)c(/C=N/NC(=O)c3cccc([N+](=O)[O-])c3)c2=O)cc1C ?
yes

What call does the record list for Cc1ccc(C)c(C(C)NC(=O)C2CCCO2)c1 (stereo unspecified) ?
no

What call does the record list for Clc1ccc2nc(CSc3ccccc3)cn2c1 ?
yes

What call does the record list for CCOc1ncccc1C(=O)OCc1cn2cc(Cl)ccc2n1 ?
no

====

protocol-description: A qHTS for Small Molecule Inhibitors of Shiga Toxin
experimental-conditions: Vero cells, Shiga toxin protein synthesis inhibition reporter; at 38.7 µM
About 27,000 (9.3%) of roughly 290,000 compounds were called active. No stated cut-off is given here; in the data, active means inhibition mostly above about 28% (no sharp cut-off); inactive means mostly below about 43%. This is one part of a sample in which actives are shown more often than they occur.
// classify into active, inactive

# compound, discrete-label
records = [
    ("CC(=O)c1ccc(NC(=O)c2cc(-c3cccs3)on2)cc1", "inactive"),
    ("COc1ccc(-c2cc(=O)oc3cc(OC(C)C(=O)Nc4ccc(CN5CCOCC5)cc4)ccc23)cc1 (stereo not given)", "inactive"),
    ("C/C(=N\\OCC(=O)Nc1ccc(Br)cc1)c1cccs1", "inactive"),
    ("CS(=O)(=O)Nc1ccc(C2=NN(S(C)(=O)=O)C(c3cccs3)C2)cc1 (stereo not given)", "active"),
]

What call does the record list for CNC(=O)n1ccc(C(=O)N2CCCCC2)n1 ?
inactive

What call does the record list for CN1CCN(C(=O)c2cnn(-c3ccccc3)c2NC(=O)c2ccc([N+](=O)[O-])cc2)CC1 ?
inactive

What call does the record list for Clc1ccc(-c2csc(-c3ccncc3)n2)cc1 ?
active

What call does the record list for CC1C(=O)C(C)C(c2ccc(O)cc2)NC1c1ccc(O)cc1 (stereo not given) ?
inactive

What call does the record list for CC(=O)N1CCCc2cc(S(=O)(=O)N3CCCC(C(=O)N4CCN(c5cccc(Cl)c5)CC4)C3)ccc21 (stereo not given) ?
inactive

What call does the record list for COc1cccc(-n2cc3c(c2-c2ccccc2)c(=O)n(C)c(=O)n3C)c1 ?
active

What call does the record list for COc1cc(C2C(C(=O)c3ccco3)=C(O)C(=O)N2c2cc(C)on2)ccc1OCc1ccccc1 (stereo not given) ?
inactive

What call does the record list for O=C(Nc1ccccc1N1CCN(C(=O)c2ccccc2)CC1)c1ccc2c(c1)OCO2 ?
inactive
